tested on: HOP-92 NSCLC; test: NCI-60 one-dose screen, 48 h (100 = growth as untreated, 0 = no growth, -100 = all killed); details: 10 µM unless noted
About 83,000 compounds went through this panel and 20% of them were active in at least one assay; those are over-represented in the sample as a whole.
I'd appreciate it if you could supply growth values for the items below.
Only the number, expressed in %, is required.

Item: C#CCOc1ccc2nc(CCl)c(Cl)c(Nc3cccc(C(F)(F)F)c3)c2c1 | growth: 94.6

Item: Nc1nc(N)c2c(n1)NC(c1cccc(Nc3ccnc4cc(C(F)(F)F)ccc34)c1)CC(c1ccc3c(c1)OCO3)=N2 (configuration not stated) | growth: 54.4

Item: COc1ccccc1S(=O)(=O)Nc1ccc2c3c(cc(CCC(=O)NCCCCNc4cccc5c4C(=O)N(C4CCC(=O)NC4=O)C5=O)cc13)C(=O)N2C (configuration not stated) | growth: -10.7

Item: O=C1C(Cl)=C(Nc2ccccc2)C(=O)c2ccccc21 | growth: -94.4

Item: Nc1ncnc2c1N=C(c1ccc(F)cc1)CC(c1cccc(Nc3ccnc4cc(Cl)ccc34)c1)N2 (configuration not stated) | growth: 67.8

Item: COc1cc(Cc2cc(OC)c(O)c(OC)c2)cc(OC)c1O | growth: 89.6

Item: CC1(C)N=C(N)N=C(N)N1c1ccc(S(=O)(=O)Nc2nccs2)cc1 | growth: 87.2

Item: COc1cc(-c2ccc(-c3ccc(C(=N)N)cc3)s2)cc(OC)c1OC | growth: 43.4

Item: C=C(c1ccc(C(=O)O)c(F)c1)c1cc2c(cc1C)C(C)(C)CCC2(C)C | growth: 58.4

Item: O=C1Nc2ccc(Cl)cc2/C1=C/c1ccc[nH]1 | growth: 133

Item: FC(F)(F)c1[nH]ncc1-c1nc2ccc3[nH]ncc3c2c2c1CCCC2 | growth: 31.2

Item: CC1SC(c2ccccc2O)N(NC(=O)CCC(=O)c2nc3ncccc3[nH]2)C1=O (configuration not stated) | growth: 79.2

Item: COc1ccc2c(c1)c(-c1nc(-c3ccc4ccccc4c3)cs1)cn2C | growth: 93

Item: COc1ccc(C/C(C)=C(\c2ccc(Cl)cc2)c2ccc(OCCN3CCCC3)cc2)cc1 | growth: 70.5

Item: NS(=O)(=O)c1ccc(C(=O)N=Nc2c(O)[nH]c3ccc(Cl)cc23)cc1 | growth: 103

Item: COc1ccc(-c2cc(C(=O)N3N=C(c4ccc(N)cc4)CC3c3ccc(Cl)cc3)c3ccccc3n2)cc1 (configuration not stated) | growth: 45.4

Item: CN(C)C1CN(C(=O)c2cc(-c3ccc4ncnc(N5CCc6cc(F)c(Cl)cc65)c4c3)cnc2N)C1 | growth: -15

Item: COc1cc2c3c(c4c5ccccc5[nH]c4c2c(OC)c1OC)C(=O)N(CCN1CCCCC1)C3=O | growth: 48.7

Item: COc1ccc(/C=C2\c3cc(OC)c(OC)c(OC)c3CC[C@@H]2O)cc1F | growth: 38.2

Item: CCCCO[C@@H]1C=C2[C@H]3CC(C)(C)C(=O)C[C@]3(C(=O)O[C@@H]3O[C@H](CO[C@@H]4O[C@H](CO)[C@@H](OC5OC(C)C(O)C(O)C5O)[C@H](O)[C@H]4O)[C@@H](O)[C@H](O)[C@H]3O)CC[C@@]2(C)[C@]2(C)CC[C@H]3C(C)(C)C(=O)CC[C@]3(C)[C@@H]12 (some centres not stated) | growth: 2.25

Item: CN(C)c1ccc(/C=C2\C=C(c3nc4ccccc4s3)OC2=O)cc1 | growth: 77.8

Item: Nc1[nH]nc2nc(-c3ccccc3)n3c4ccccc4nc3c12 | growth: 122

Every entry's value here was drawn from PubChem BioAssay (NCI).
